Test system: SK-MEL-28 melanoma
Experiment: NCI tumour cell line growth inhibition, 48 h
quantity-kind: TGI

Worked examples follow.
{"compound": "Nc1nc(N)c(-c2cccc(C(F)(F)F)c2)c(Cc2cccc(C(F)(F)F)c2)n1", "TGI": "24.8 µM"}
{"compound": "Cc1cc2c(cc1C)[n+](=O)c(C(=O)C(C)(C)C)c(C(F)(F)F)n2[O-]", "TGI": "> 100 µM"}
{"compound": "OC[C@@H]1CC#C/C=C\\C#CC[C@@H]1CO", "TGI": "> 100 µM"}
{"compound": "CC=C(CBr)CCC(Br)C(C)(C)Cl (mixture of isomers)", "TGI": "> 10 µM"}

Next up:
input: TGI for O=C1CSC(c2cccc([N+](=O)[O-])c2)N1c1ccc(-c2ccc(-n3c(-c4ccccc4)nc4ccccc4c3=O)cc2)cc1 (stereo not given) ?
output: > 100 µM

The origin of these recorded values is PubChem BioAssay (NCI).
